molecular target: MAGI1_4, Q96QZ7; experiment: holdup assay; set-up: key: below the threshold = too weak to quantify, mostly under pKd 3.1 to 4; details: plain residues with an end cap or a label only (N-terminal biotin on a linker: ttds)
Sequence (Q96QZ7 other isoform, or with tags, fused parts or gaps): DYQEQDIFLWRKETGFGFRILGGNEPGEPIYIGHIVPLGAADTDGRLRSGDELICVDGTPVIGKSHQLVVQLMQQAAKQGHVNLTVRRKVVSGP
testReadout: pKd

Observe how each entry below is paired with its result.
- binder: "QRQARSETLV [HPV59-E6, Q81964]"
  pKd: 4.65
- binder: "RHTTSTETAV [HPV30-E6, P36809]"
  pKd: "below the threshold"
- binder: "SKPTRRETEV [HPV35-E6, P27228]"
  pKd: "below the threshold"
- binder: "SGSRPSATVV [HPV73-E6, Q82005]"
  pKd: "below the threshold"
- binder: "SSLQSLETSV [ATP2B4, P23634]"
  pKd: "below the threshold"
- binder: "RLPKIKETTV [FRMPD4, Q14CM0]"
  pKd: "below the threshold"
- binder: "RPLPRKVSQL [DOCK4, Q8N1I0]"
  pKd: "below the threshold"

Turning now to a further binder:
The recorded pKd for RLQRRRETQV [HPV18-E6, P06463] is 4.28

Reference for the values: paper PMC9482650
